Test system: Ruminococcus gnavus DSM 108212
protocol_details: fold change of 2-Phenylethylamine concentration vs plate DMSO controls (fold change (ratio)); higher = more amine produced, active = hit call of the paper (significant change in both replicates, either direction)
condition_label: incubation time: 27 h, anaerobic, 37 °C
Structures can show the parent of a compound that is named as a salt.
measurement_label: fold change of 2-Phenylethylamine concentration

compound	result
CC(C)(C)NC[C@H](O)COc1cccc2c1CCCC2=O [(-) Levobunolol hydrochloride] (20 µM)	0.866 (inactive)
NC(=O)c1cccnc1 [Nicotinamide] (20 µM)	0.953 (inactive)
CCC(=O)OCC(=O)[C@@]1(OC(=O)CC)[C@H](C)C[C@H]2[C@H]3[C@H]([C@@H](O)C[C@@]21C)[C@@]1(C)C=CC(=O)C=C1C[C@H]3Cl [Alclometasone dipropionate] (20 µM)	0.97 (inactive)
O=C(O)CNC(=O)C(CS)Cc1ccccc1 (centres undefined) [Thiorphan] (20 µM)	1.02 (inactive)

All figures here come from the supplement of paper PMC12494721.
